- Tested on: SU-DHL-10
- testProtocol: 5-day viable cell number and apoptosis (7-AAD exclusion/Annexin V flow cytometry)
- Assay type: cell-based
- experimentalParameters: Homo sapiens, SU-DHL10; SU-DHL-10 cells (Table 3); read-out: IC50
measure: IC50 (µM)
Please reply with the bare figure in µM and do not write the unit itself.

[ask] Look up IC50 with SU-DHL-10 for this compound: `O=C1CC[C@H](N2C(=O)c3cccc(NCc4ccc(CN5CC(N6CCOCC6)C5)cc4F)c3C2=O)C(=O)N1`
[reply] 3.4

[ask] Follow-up entry: COc1cccc2c1C(=O)c1c(O)c3c(c(O)c1C2=O)C[C@@](O)(C(=O)CO)C[C@@H]3O[C@H]1C[C@H](N)[C@H](O)[C@H](C)O1 [Doxorubicin, reference compound]
[reply] 0.6

[ask] Can you check CC1(C)CCC(CN2CCN(c3ccc(C(=O)NS(=O)(=O)c4ccc(NCC5CCOCC5)c([N+](=O)[O-])c4)c(Oc4cnc5[nH]ccc5c4)c3)CC2)=C(c2ccc(Cl)cc2)C1 [Venetoclax, reference compound] next?
[reply] 454
